Source: patent US20240190849A1

Answer each item with its documented Kd.
# assayed_target: FGFR3 (V555M) (Homo sapiens, UniProt P22607, V555M)
# Construct: made in house; host or cells: E. coli derived from BL21, infected with T7 phage
# Sequence (P22607 23-806 V555M): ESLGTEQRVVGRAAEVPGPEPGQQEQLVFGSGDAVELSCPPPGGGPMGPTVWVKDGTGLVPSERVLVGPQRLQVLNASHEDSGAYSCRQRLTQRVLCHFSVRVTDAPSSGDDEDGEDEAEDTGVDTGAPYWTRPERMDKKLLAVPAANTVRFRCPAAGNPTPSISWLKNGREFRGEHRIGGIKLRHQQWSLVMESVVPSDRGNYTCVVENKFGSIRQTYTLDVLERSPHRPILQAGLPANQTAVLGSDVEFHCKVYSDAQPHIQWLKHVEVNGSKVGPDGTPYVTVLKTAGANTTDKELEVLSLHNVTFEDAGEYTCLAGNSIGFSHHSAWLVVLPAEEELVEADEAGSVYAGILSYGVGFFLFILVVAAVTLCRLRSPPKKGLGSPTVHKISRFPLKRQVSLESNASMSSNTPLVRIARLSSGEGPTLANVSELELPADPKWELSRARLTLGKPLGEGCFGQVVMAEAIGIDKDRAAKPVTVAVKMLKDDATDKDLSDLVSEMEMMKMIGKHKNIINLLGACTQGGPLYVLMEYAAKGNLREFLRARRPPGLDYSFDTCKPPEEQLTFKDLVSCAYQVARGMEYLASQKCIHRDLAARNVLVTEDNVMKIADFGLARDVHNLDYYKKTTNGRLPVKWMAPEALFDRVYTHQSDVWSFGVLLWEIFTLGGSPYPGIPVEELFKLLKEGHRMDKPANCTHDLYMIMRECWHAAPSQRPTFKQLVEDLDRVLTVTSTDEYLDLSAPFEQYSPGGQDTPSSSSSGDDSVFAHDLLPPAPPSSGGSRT
# test_details: Kinase binding assay (kinase-tagged T7 phage, affinity beads, qPCR readout), FGFR3 (V555M)
# reported_conditions: FGFR binding data

Using the record for C=CC(=O)Nc1ccc2c(c1)c(C)cn2-c1nc(Nc2cnn(C)c2)ncc1C , state its measured Kd.
0.1 to 100 nM

Using the record for Cc1nn(C)cc1Nc1ncc(F)c(-n2cc(C)c3cc(NC(=O)/C=C/CN(C)C)cnc32)n1 , state its measured Kd.
100 to 250 nM

Using the record for C=CC(=O)Nc1ccc2c(-c3ccnc(Nc4cc(C)n(C)n4)n3)cn(C)c2c1 , state its measured Kd.
100 to 250 nM

Using the record for C=CC(=O)Nc1ccc2c(-c3nc(Nc4ccc(N(C)CCN(C)C)c(OC)c4)ncc3Cl)cn(C)c2c1 , state its measured Kd.
0.1 to 100 nM

Using the record for C=CC(=O)Nc1ccc2c(-c3nc(Nc4ccnn4C)ncc3Cl)cn(C)c2c1 , state its measured Kd.
0.1 to 100 nM

Using the record for C=CC(=O)Nc1ccc2c(-c3ccnc(Nc4cnn(CC5CC5)c4)n3)cn(C)c2c1 , state its measured Kd.
0.1 to 100 nM

Using the record for C=CC(=O)Nc1ccc2c(-c3ccnc(Nc4cnn(CC)c4)n3)cn(C)c2c1 , state its measured Kd.
0.1 to 100 nM

Using the record for C#CC(=O)Nc1ccc2c(-c3ccnc(Nc4cnn(CCO)c4)n3)cn(C)c2c1 , state its measured Kd.
0.1 to 100 nM

Using the record for C=CC(=O)Nc1ccc2c(-c3nc(Nc4cnn(C)c4)ncc3Cl)cn(C)c2c1 , state its measured Kd.
0.1 to 100 nM

Using the record for C=CC(=O)Nc1ccc2c(-c3ccnc(Nc4cnn(C(C)C)c4)n3)cn(C)c2c1 , state its measured Kd.
0.1 to 100 nM

Using the record for C=CC(=O)Nc1ccc2c(c1)c(C)cn2-c1nc(Nc2cccc(N3CCN(C)CC3)c2)ncc1Cl , state its measured Kd.
0.1 to 100 nM

Using the record for C=CC(=O)Nc1ccc2c(-c3nc(Nc4ccc(N5CCN(C)CC5)nc4)ncc3Cl)cn(C)c2c1 , state its measured Kd.
0.1 to 100 nM

Using the record for Cc1cn(-c2nc(Nc3cnn(C)c3C)ncc2F)c2ncc(NC(=O)/C=C/CN(C)C)cc12 , state its measured Kd.
0.1 to 100 nM

Using the record for CC#CC(=O)Nc1ccc2c(c1)c(C)cn2-c1nc(Nc2ccnn2C)ncc1F , state its measured Kd.
> 1000 nM

Using the record for C=CC(=O)Nc1ccc2c(ccn2-c2nc(Nc3cn(C)nc3OCC)ncc2Cl)c1 , state its measured Kd.
100 to 250 nM

Using the record for C=CC(=O)Nc1ccc2c(ccn2-c2nc(Nc3cccc(OCCN4CCOCC4)c3)ncc2Cl)c1C , state its measured Kd.
0.1 to 100 nM

Using the record for C=CC(=O)Nc1ccc2c(c1)c(C)cn2-c1nc(Nc2cnn(C[C@@H](C)O)c2)ncc1F , state its measured Kd.
0.1 to 100 nM

Using the record for C=CC(=O)Nc1ccc2c(ccn2-c2nc(Nc3cccc(OCCN4CCOCC4)c3)ncc2Cl)c1 , state its measured Kd.
0.1 to 100 nM

Using the record for CCn1ccc(Nc2ncc(C)c(-n3cc(C)c4cc(NC(=O)/C=C/CN(C)C)cnc43)n2)n1 , state its measured Kd.
0.1 to 100 nM

Using the record for C=CC(=O)Nc1ccc2c(-c3nc(Nc4cn(C)nc4C)ncc3F)cn(C)c2c1 , state its measured Kd.
0.1 to 100 nM

Using the record for C=CC(=O)Nc1ccc2c(c1)c(C)cn2-c1nc(Nc2ccn(CC)n2)ncc1C , state its measured Kd.
0.1 to 100 nM

Using the record for C=CC(=O)Nc1ccc2c(c1)c(C)nn2-c1ccnc(Nc2ccnn2C)n1 , state its measured Kd.
> 1000 nM

Using the record for C=CC(=O)Nc1ccc2c(-c3ccnc(Nc4cnn(C(F)(F)F)c4)n3)cn(C)c2c1 , state its measured Kd.
0.1 to 100 nM

Using the record for C=CC(=O)Nc1ccc2c(c1)c(C)cn2-c1nc(Nc2cnn(CC(C)(C)O)c2)ncc1F , state its measured Kd.
0.1 to 100 nM

Using the record for C=CC(=O)Nc1ccc2c(c1)c(C)c(C)n2-c1nc(Nc2cnn(C)c2)ncc1F , state its measured Kd.
0.1 to 100 nM

Using the record for C=CC(=O)Nc1ccc2c(c1)c(C)cn2-c1nc(Nc2cccc(CN3CCOCC3)c2)ncc1Cl , state its measured Kd.
0.1 to 100 nM

Using the record for C=CC(=O)Nc1ccc2c(c1)c(C)cn2-c1nc(Nc2ccc3ncnn3c2)ncc1Cl , state its measured Kd.
0.1 to 100 nM

Using the record for C=CC(=O)Nc1ccc2c(-c3nc(Nc4ccc(N5CCOCC5)nc4)ncc3Cl)cn(C)c2c1 , state its measured Kd.
0.1 to 100 nM

Using the record for C=CC(=O)Nc1ccc2c(c1)c(C)cn2-c1nc(Nc2cccc(N3CCN(CCO)CC3)c2)ncc1Cl , state its measured Kd.
0.1 to 100 nM

Using the record for C=CC(=O)Nc1ccc2c(c1)c(C)cn2-c1nc(Nc2cn(C)nc2C)ncc1F , state its measured Kd.
0.1 to 100 nM

Using the record for C=CC(=O)Nc1ccc2c(c1)c(C)cn2-c1cc(Nc2cnn(C)c2)ncc1C , state its measured Kd.
0.1 to 100 nM

Using the record for C=CC(=O)Nc1ccc2c(-c3nc(Nc4ccc(N5CCOCC5)c(OC)c4)ncc3Cl)cn(C)c2c1 , state its measured Kd.
0.1 to 100 nM
